B1: LINE1-full (parent)
chain: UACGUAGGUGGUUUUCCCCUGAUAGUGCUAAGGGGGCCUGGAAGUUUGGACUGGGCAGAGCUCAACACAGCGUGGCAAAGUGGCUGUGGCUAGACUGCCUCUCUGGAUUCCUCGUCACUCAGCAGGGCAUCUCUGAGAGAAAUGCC

variants of: B1; experiment: self-cleavage, relative activity (ratio to wild type); higher = more cleavage; in vitro, sequencing; the parent is a self-cleaving ribozyme
Measured property: self-cleavage
Give the figure only, with no unit attached.

[
  {
    "Mutant code": "A107G U130A",
    "self-cleavage": 1.74
  }
]

QUERY: Look up self-cleavage for this variant: C68U U104A
RESULT: 0.03

QUERY: Please do the same for `A77C` as well.
RESULT: 0.98

QUERY: Please do the same for `A136C` as well.
RESULT: 1.34

QUERY: Please do the same for U15A C38A as well.
RESULT: 0.77

QUERY: Please do the same for A117U U143A as well.
RESULT: 1.23

QUERY: Please do the same for C37G U143C as well.
RESULT: 1.38

QUERY: Please do the same for G35U U100C as well.
RESULT: 1.85

QUERY: Please do the same for A77U U112A as well.
RESULT: 1.1

QUERY: Please do the same for C76U A77U as well.
RESULT: 2.05

QUERY: Please do the same for U13A A57U as well.
RESULT: 0.06

QUERY: Please do the same for G8A C37A as well.
RESULT: 0.87

Reference for the values: the RNAGym collection of RNA variant scans (doi:10.7554/elife.90254)
